- tested.system: T1, CD27 expressed on the cell surface of HT1080_CD27 cells (human, UniProt P26842 20-260); note: test concentration or dose not given here
- T1 sequence (looked up): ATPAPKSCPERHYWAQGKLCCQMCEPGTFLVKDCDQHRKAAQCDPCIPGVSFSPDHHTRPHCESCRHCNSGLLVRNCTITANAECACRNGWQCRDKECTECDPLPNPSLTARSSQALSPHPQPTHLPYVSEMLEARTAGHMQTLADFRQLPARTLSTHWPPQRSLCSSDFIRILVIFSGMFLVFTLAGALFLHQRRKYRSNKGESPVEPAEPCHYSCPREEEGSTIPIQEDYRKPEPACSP
- experimental.details: cell-based or functional assay
property.name: Functional assay Cross-linked by F(ab′)2 fragment IL-8 (abs. corr.)

binder	unit.abbrev	measured
P018.S.10.A.A03 (antibody, V domains shown, V regions on human Ig constant parts; also called AB27_163) VH: QSLEESGGRLVTPGTPLTLTCTVSGIDLSSYAMGWVRQAPGKGLEWIGTISTISNTYYASWANGRFTISKTSTTVDLKMTSLTASDTATYFCARGASNTINDYFNLWGQGTLVTVSS VL: DIVMTQTPASVSEPVGGTVTIKCQASQSVGNYLAWYQQKPGQPPKLLIYDASNLASGVSSRFKGSGFATEFILTISDLESTDAATYYCHSYVYSSGNVYNGFGGGTEVVVK	abs. corr.	2.06
P018.S.10.A.E02 (antibody, V domains shown, V regions on human Ig constant parts; also called AB27_176) VH: QEQLEESGGDLVKPEGSLTLTCTASGFSFSSSFYMCWVRQAPGKGLEWVACIYAEDSDYTYYASWAKGRFTISKTSSTTVTLQMTSLTAADTATYFCAREILYPTNTDSFDLWGPGTLVTVSS VL: AFELTQTPSSVEAAVGGTVTIKCQASESFSSRLAWYQQKPGQPPKLLIYRASTLASGVPSRFKGSGSGTDFTLTISDLESADAAAYYCQAYVGISSGGYAFGGGTEVVVG	abs. corr.	1.39
P018.S.05.A.F05 (as anti-CD27 antibody) (antibody, V domains shown, V regions on human Ig constant parts; also called AB27_92) VH: QSVEESGGRLVTPGTPLTLTCTVSGFSLSNYYMTWVRQAPGKGLEYIGIIGSGVSTYYANWAKGRFTISKASSTTVDLKMTSPTTEDTATYFCARDMYVGNWGDWGLWGQGTLVTVSS VL: AYDMTQTPASVEVAVGGTVTIKCQASQSISNNLNWYQQKPGQPPKLLIYSVSTLASGVPSRFKGSGSGTDYTLTISGVESVDAATYYCQQDYRIGDLDSAFGGGTEVVVK	abs. corr.	2.21
